B1: CPEB3 Ribozyme (parent)
chain: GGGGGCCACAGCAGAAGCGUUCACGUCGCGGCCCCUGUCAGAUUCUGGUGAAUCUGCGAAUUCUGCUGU

# Variants of: B1
# experimentNotes: self-cleavage, relative activity (ratio to wild type); higher = more cleavage; co-transcriptional
Here, each record is paired with measured self-cleavage data.
property: self-cleavage

[[record]]
sequenceinput = "GGGGGCCACAGCAGAAGCGUUCACGUCGCAGCCCCUGUCAGAUUCUGGUGAAUCUGCGAAUUCUGCUCU [G30A G68C]"
property = "self-cleavage"
assayvalue = 1.01

[[record]]
sequenceinput = "GGGGGCCACAGCAGACGCGUUCACGUCGCGACCCCUGUCAGAUUCUGGUGAAUCUGCGAAUUCUGCUGU [A16C G31A]"
property = "self-cleavage"
assayvalue = 0.0686

[[record]]
sequenceinput = "GGGGGGCACAGCAGAAGCGUUCACGUCGCGGCCCCUGUUAGAUUCUGGUGAAUCUGCGAAUUCUGCUGU [C6G C39U]"
property = "self-cleavage"
assayvalue = 0.168

[[record]]
sequenceinput = "GGGUGCCACAGCAGAAGCGUUCACGUCGCGGCCCCUGUCAGAUUCUGGUGAAUCUGCUAAUUCUGCUGU [G4U G58U]"
property = "self-cleavage"
assayvalue = 0.798

[[record]]
sequenceinput = "GGGGGCCACAGCAGAAGCGUUCACGUCGCGGCCCCUGUAAGAUUCUGGUGAAUCUGCGAAUUCGGCUGU [C39A U64G]"
property = "self-cleavage"
assayvalue = 0.61

[[record]]
sequenceinput = "GGGGGCCACAGCAGAAGCGUUCACGUCGCUGCCCCUGUCAGAUUCGGGUGAAUCUGCGAAUUCUGCUGU [G30U U46G]"
property = "self-cleavage"
assayvalue = 0.441

[[record]]
sequenceinput = "GGGGGCCACAGCAGAAGCGUUCACGUCGCGGCCCCAGUCAGAUUCUGGUGAACCUGCGAAUUCUGCUGU [U36A U53C]"
property = "self-cleavage"
assayvalue = 0.181

[[record]]
sequenceinput = "GGGGGCCACAGCAGAAGCGUUCACGUCGCGGCCCCUGUCAGAUUCCGGGGAAUCUGCGAAUUCUGCUGU [U46C U49G]"
property = "self-cleavage"
assayvalue = 1.01

[[record]]
sequenceinput = "GGGGUCCACAGCAGAAGCGUUCACGUCGCGGCCCCUGUCAGAUUCUGGUGAAUCUGCGAAUUCUGCUGA [G5U U69A]"
property = "self-cleavage"
assayvalue = 0.503

[[record]]
sequenceinput = "GGGGGCCAAAGCAGAAGCGUUCACGUCGCGGCCCCUGUCAGAUUCUGGUGAAUCUGCGAAUUCUGCUGA [C9A U69A]"
property = "self-cleavage"
assayvalue = 1.06

[[record]]
sequenceinput = "GGGGGCCACAGCAGAAGCGUUCACGCCGCGGCCCCUGUCAGACUCUGGUGAAUCUGCGAAUUCUGCUGU [U26C U43C]"
property = "self-cleavage"
assayvalue = 0.892

[[record]]
sequenceinput = "GGGGGCCACAGGAGAAGCGUUCACGUCGCGGCCCCUGUCAGAUUCUGGUGAAUCUGCGAAUUUUGCUGU [C12G C63U]"
property = "self-cleavage"
assayvalue = 0.53

[[record]]
sequenceinput = "GGGGGCCACAGCAGAAGCGUUCACGUCGCGGCCCCGGUCAGAUUCUGGUGAAUCUGCGAAUUAUGCUGU [U36G C63A]"
property = "self-cleavage"
assayvalue = 0.147

[[record]]
sequenceinput = "GGGGGCCACAGCAGAAGCGUUCACGUAGCGGCCCCUGUCAGAUUCUGGUGAAUCUGCGAAAUCUGCUGU [C27A U61A]"
property = "self-cleavage"
assayvalue = 0.28


These entries and their values trace back to the RNAGym collection of RNA variant scans (doi:10.7554/elife.80360).
